Data credit: PubChem BioAssay (NCI)

The molecules listed here are annotated with their TGI.
- System: OVCAR-3 ovarian
- TEST NAME: NCI tumour cell line growth inhibition, 48 h

Worked set:
MOLECULE	TGI
NN/C(=N\S(=O)(=O)c1ccc(-c2ccccn2)s1)Nc1ccc(Cl)cc1	> 100 µM
CC(=O)NC1=C(C)C(=O)c2c(nc3n2CCC3OC(=O)CCl)C1=O (stereo unspecified)	3.68 µM

Lookup: Entry CSc1nc(=Nc2ccccc2)sn1-c1ccccc1 : reported TGI = ?
Found: 38.5 µM

Lookup: Another molecule to look at: COC(=O)C(=O)C(C(=O)OC)C(=O)C(=O)Nc1ccccc1C(N)=O (stereo unspecified)
Found: > 100 µM

Lookup: Repeat for the following molecule: CC(=O)NC1=C(C)C(=O)c2c(nc3n2CCC3OC(=O)c2ccccc2)C1=O (stereo unspecified)
Found: 0.528 µM

Lookup: How about this molecule: O=C(NC1CCC(Br)CC1)C1CCCC(S(=O)(=O)NC2CCCCC2)C1 (stereo unspecified)
Found: 40 µM

Lookup: Note, next up: COC(=O)[C@]12CC[C@H]3CN(C(=O)OCc4ccccc4)[C@H]([C@H]31)[C@H](C(=O)OCC[Si](C)(C)C)N2S(=O)(=O)c1ccc(C)cc1
Found: > 100 µM

Lookup: Moving on to Oc1ccc2c(c1)OCC1c3ccccc3OC21 (stereo unspecified)
Found: > 100 µM

Lookup: Record: COc1ccc(Cc2nc3cc([N+](=O)[O-])ccc3n2C[C@@H]2CCCN3CCCCC23)cc1 (stereo partly specified)
Found: 41.1 µM

Lookup: And for O=C(CC(Cl)(Cl)C(Cl)(Cl)Cl)c1ccccc1 ?
Found: 4.33 µM

Lookup: Do the same for Cc1cc(C)nc(NS(=O)(=O)c2ccc(NC(=O)c3ccc(Cl)c4c(Nc5ccc(S(=O)(=O)Nc6cc(C)on6)cc5)c5ccccc5nc34)cc2)n1 please
Found: 30.4 µM

Lookup: Next molecule: Cc1cc(-c2c(Br)cc(C(=O)O)n2C)on1
Found: > 100 µM

Lookup: Try this molecule too: CCC(CN(C)C)C(=O)c1ccco1 (stereo unspecified)
Found: > 100 µM

Lookup: Same again, this time with Cc1ccc(S(=O)(=O)NCCN(CCNS(=O)(=O)c2ccc(C)cc2)S(=O)(=O)c2ccc(C)cc2)cc1
Found: > 100 µM

Lookup: Also need CC(C1=CC=C2[C@@H]3CCC4CC(N(C)C)CC[C@]4(C)C3CC[C@]12C)N(C)C=O (stereo partly specified) , thanks.
Found: > 100 µM
